The reported numbers originate from patent US11643429B2.

Each entry below carries its recorded half-life at 5 µM.
- assay-overview: Rabbit Cornea Homogenate Stability Assay (Rabbit Cornea Esterase Assay)
- Format: in vitro ADME
- condition-details: New Zealand White, pH 7.5, Rabbit Cornea Homogenate 0.15 mg/ml total protein, 37° C., half-life of parent conjugate, read-out: T1/2 Esterase (min) (0.15 mg/ml Homogenate)
# output: bare number, implied unit min

Some molecules with recorded half-life at 5 µM:
CC[C@H]1OC(=O)[C@H](C)[C@@H](O[C@H]2C[C@@](C)(OC)[C@@H](O)[C@H](C)O2)[C@H](C)[C@@H](O[C@@H]2O[C@H](C)C[C@H](N(C)C)[C@H]2OC(=O)O[C@H](C)C(=O)OC)[C@](C)(O)C[C@@H](C)CN(C)[C@H](C)[C@@H](O)[C@]1(C)O [Compound 10] : 53
CC[C@H]1OC(=O)[C@H](C)[C@@H](O[C@H]2C[C@@](C)(OC)[C@@H](O)[C@H](C)O2)[C@H](C)[C@@H](O[C@@H]2O[C@H](C)C[C@H](N(C)C)[C@H]2OC(=O)CCOCCOCCOCCOCCO)[C@](C)(O)C[C@@H](C)CN(C)[C@H](C)[C@@H](O)[C@]1(C)O [Compound 5] : 21

The record that follows has no half-life at 5 µM shown yet.
Input CC[C@H]1OC(=O)[C@H](C)[C@@H](O[C@H]2C[C@@](C)(OC)[C@@H](O)[C@H](C)O2)[C@H](C)[C@@H](O[C@@H]2O[C@H](C)C[C@H](N(C)C)[C@H]2OC(=O)Cc2ccc(OC)cc2)[C@](C)(O)C[C@@H](C)CN(C)[C@H](C)[C@@H](O)[C@]1(C)O [Compound 3] . Output half-life at 5 µM: 35

---

- assay-overview: Aqueous Hydrolysis Stability Assay
- Assay type: physicochemical
- condition-details: 50 mM HEPES buffer pH 7.5; HEPES pH 7.5, room temperature; read-out: T1/2 Aq Stability
half-life at 100 µM reference

Examples with answers:
CC[C@H]1OC(=O)[C@H](C)[C@@H](O[C@H]2C[C@@](C)(OC)[C@@H](O)[C@H](C)O2)[C@H](C)[C@@H](O[C@@H]2O[C@H](C)C[C@H](N(C)C)[C@H]2OC(=O)SC[C@H](NC(C)=O)C(=O)OC)[C@](C)(O)C[C@@H](C)CN(C)[C@H](C)[C@@H](O)[C@]1(C)O : > 2 h
CC[C@H]1OC(=O)[C@H](C)[C@@H](O[C@H]2C[C@@](C)(OC)[C@@H](O)[C@H](C)O2)[C@H](C)[C@@H](O[C@@H]2O[C@H](C)C[C@H](N(C)C)[C@H]2O)[C@](C)(O)C[C@@H](C)CN(C)[C@H](C)[C@@H](OC(C)=O)[C@]1(C)O : > 2 h
CC[C@H]1OC(=O)[C@H](C)[C@@H](O[C@H]2C[C@@](C)(OC)[C@@H](O)[C@H](C)O2)[C@H](C)[C@@H](O[C@@H]2O[C@H](C)C[C@H](N(C)C)[C@H]2OC(=O)Cc2ccc(OC)cc2)[C@](C)(O)C[C@@H](C)CN(C)[C@H](C)[C@@H](O)[C@]1(C)O : 0.7 h
CC[C@H]1OC(=O)[C@H](C)[C@@H](O[C@H]2C[C@@](C)(OC)[C@@H](O)[C@H](C)O2)[C@H](C)[C@@H](O[C@@H]2O[C@H](C)C[C@H](N(C)C)[C@H]2OC(=O)[C@@H](C)O)[C@](C)(O)C[C@@H](C)CN(C)[C@H](C)[C@@H](O)[C@]1(C)O : < 0.05 h

# ---- query molecule ----
Entry CC[C@H]1OC(=O)[C@H](C)[C@@H](O[C@H]2C[C@@](C)(OC)[C@@H](OC(C)=O)[C@H](C)O2)[C@H](C)[C@@H](O[C@@H]2O[C@H](C)C[C@H](N(C)C)[C@H]2O)[C@](C)(O)C[C@@H](C)CN(C)[C@H](C)[C@@H](O)[C@]1(C)O , half-life at 100 µM reported as > 2 h
